Tested on: mice of the OF1 strain
Test: Hypolipidemic activity: plasma cholesterol and plasma triglycerides in mice fed compound in chow
Assay type: in vivo
Details: Mus musculus, feed or water, 240 h, read-out: Cholesterol (% control)
I'd appreciate it if you could supply change in vivo at 180 mg/kg values for the items below.

Request: I have this compound here, CCCOP(=O)(OCCC)C(Cc1cc(C(C)(C)C)c(O)c(C(C)(C)C)c1)P(=O)(OCCC)OCCC , and I need its recorded change in vivo at 180 mg/kg.
Response: -15%

Request: Please do the same for CCOP(=O)(OCC)C(=Cc1cc(C(C)CC)c(O)c(C(C)CC)c1)P(=O)(OCC)OCC (stereo not shown) as well.
Response: 8%

Request: Please do the same for CCOP(=O)(OCC)C(CC)(Cc1cc(C(C)(C)C)c(O)c(C(C)(C)C)c1)P(=O)(OCC)OCC as well.
Response: -16%

Request: Please do the same for CCOP(=O)(OCC)C(=Cc1cc(OC)c(O)c(OC)c1)P(=O)(OCC)OCC as well.
Response: -16%

Request: Please do the same for CCOP(=O)(OCC)C(=Cc1ccc2c(c1)OCCO2)P(=O)(OCC)OCC as well.
Response: 4%

Request: Please do the same for CCOP(=O)(OCC)C(Cc1cc(C(C)(C)C)c(O)c(C(C)(C)C)c1)P(=O)(N(C)C)N(C)C (stereo not shown) as well.
Response: -6%

Request: Please do the same for CCOP(=O)(OCC)C(=Cc1cc(C(C)(C)C)cc(C(C)(C)C)c1O)P(=O)(OCC)OCC as well.
Response: 1%

Request: Please do the same for CCCCOP(=O)(OCCCC)C(Cc1cc(C(C)(C)C)c(O)c(C(C)(C)C)c1)P(=O)(OCCCC)OCCCC as well.
Response: -23%

Request: Please do the same for CCOP(=O)(OCC)C(Cc1cc(C)c(O)c(C(C)(C)C)c1)P(=O)(OCC)OCC as well.
Response: -2%

Request: Please do the same for CCOP(=O)(OCC)C(=Cc1cc(C(C)(C)C)c(O)c(C(C)(C)C)c1)P(=O)(OCC)OCC as well.
Response: -40%

Request: Please do the same for CCOP(=O)(OCC)C(=Cc1ccc2c(c1)OCO2)P(=O)(OCC)OCC as well.
Response: -5%

Request: Please do the same for COP(=O)(OC)C(Cc1cc(C(C)(C)C)c(O)c(C(C)(C)C)c1)P(=O)(OC)OC as well.
Response: -5%

Request: Please do the same for CCOP(=O)(OCC)C(=Cc1cc(C(C)(C)C)c(OC(C)=O)c(C(C)(C)C)c1)P(=O)(OCC)OCC as well.
Response: -3%

Request: Please do the same for CCCCOP(=O)(OCCCC)C(=Cc1cc(C(C)(C)C)c(O)c(C(C)(C)C)c1)P(=O)(OCC)OCC as well.
Response: 12%

Request: Please do the same for CCCCOP(=O)(OCCCC)C(Cc1cc(C(C)(C)C)c(O)c(C(C)(C)C)c1)P(=O)(OCC)OCC (stereo not shown) as well.
Response: -31%

Request: Please do the same for COP(=O)(OC)C(=Cc1cc(C(C)(C)C)c(O)c(C(C)(C)C)c1)P(=O)(OC)OC as well.
Response: -31%

Request: Please do the same for CCOP(=O)(OCC)C(=Cc1cc(C)c(O)c(C(C)(C)C)c1)P(=O)(OCC)OCC as well.
Response: 2%

Request: Please do the same for CCOP(=O)(OCC)C(Cc1cc(C(C)C)c(O)c(C(C)C)c1)P(=O)(OCC)OCC as well.
Response: 6%

Request: Please do the same for CCOP(=O)(OCC)C(Cc1cc(C(C)CC)c(O)c(C(C)CC)c1)P(=O)(OCC)OCC (stereo not shown) as well.
Response: -19%
